# Tested on: COLO 205 colon
# TEST_DESCRIPTION: NCI-60 one-dose screen, 48 h (100 = growth as untreated, 0 = no growth, -100 = all killed)
# ASSAY_SETUP: 10 µM unless noted
This is part of a sample that, as a whole, favours compounds with a hit. Of some 83,000 tested, about 20% had one in any assay.
// reported growth per item

- ENTRY_SMILES: "COc1ccc(NNS(=O)(=O)O)cc1"
  growth [%]: 104
- ENTRY_SMILES: "CC(C)(N)CO[C@H]1C[C@H]2CC[C@@]1(C)C2(C)C"
  growth [%]: 109
- ENTRY_SMILES: "NC(=O)NCCO"
  growth [%]: 116
- ENTRY_SMILES: "CCOc1ccc(C(=O)NCC(C)C)cc1"
  growth [%]: 101
- ENTRY_SMILES: "COc1ccc(Nc2cc(Cl)ccc2C(=O)O)cn1"
  growth [%]: 103

----------
# Tested on: HOP-92 NSCLC
# TEST_DESCRIPTION: NCI-60 one-dose screen, 48 h
# ASSAY_SETUP: 10 µM unless noted
This is part of a sample that, as a whole, favours compounds with a hit. Of some 83,000 tested, about 20% had one in any assay. Active and inactive are the calls of the source. How the source made its calls: active means growth percent below 10; inactive means the rest.
Possible outcomes: active, inactive

- COMPOUND: "CN1CCCN(C(c2ccccc2)c2ccc(Cl)cc2)CC1 (stereo not given)"
  ASSIGNED_CATEGORY: "inactive"
- COMPOUND: "O=[N+]([O-])c1c(O)c(CNCCCO)cc(CNCCCO)c1O"
  ASSIGNED_CATEGORY: "inactive"
- COMPOUND: "O=c1cc(C(F)(F)F)[nH]c(=S)[nH]1"
  ASSIGNED_CATEGORY: "inactive"
- COMPOUND: "C=C(c1ccc(N(C)C)cc1)c1ccc(N(C)C)cc1"
  ASSIGNED_CATEGORY: "active"
- COMPOUND: "CCCCCCCCNC(=O)C(C)C"
  ASSIGNED_CATEGORY: "inactive"
- COMPOUND: "CCN(CC)CCCC(C)NC(=S)N/N=C(\\C)c1ccccn1 (stereo not given)"
  ASSIGNED_CATEGORY: "inactive"
- COMPOUND: "CCNCC(C)(C)O"
  ASSIGNED_CATEGORY: "inactive"
- COMPOUND: "N#C/C(=C\\NC(=S)N=Nc1c(O)[nH]c2ccccc12)c1nc2ccccc2s1"
  ASSIGNED_CATEGORY: "inactive"
- COMPOUND: "NNc1ncnc2c1ncn2C1OC(CO)C(O)C1O (stereo not given)"
  ASSIGNED_CATEGORY: "inactive"
- COMPOUND: "COC(=O)c1ccccc1C(=O)c1c(C)cc(C)cc1C"
  ASSIGNED_CATEGORY: "inactive"
- COMPOUND: "CC(=O)Nc1ccc(O)c(C)c1"
  ASSIGNED_CATEGORY: "inactive"
- COMPOUND: "CCC(C)c1c(N)n(S(=O)(=O)c2ccc(C)cc2)oc1=O (stereo not given)"
  ASSIGNED_CATEGORY: "inactive"
- COMPOUND: "CC1(C)CCC(C)(C)NC(=S)N1"
  ASSIGNED_CATEGORY: "inactive"
- COMPOUND: "CN(C)Cc1ccccn1"
  ASSIGNED_CATEGORY: "inactive"
- COMPOUND: "CCCCCCCCCCC(=O)CCCCCCCCCC"
  ASSIGNED_CATEGORY: "inactive"
- COMPOUND: "C=CCc1cc(OC)c(OC)c(OC)c1"
  ASSIGNED_CATEGORY: "inactive"
- COMPOUND: "Cc1cccnc1NC1OC(=O)c2ccccc21 (stereo not given)"
  ASSIGNED_CATEGORY: "inactive"
- COMPOUND: "COc1cc(C(=O)O)c(O)c(C(C)(C)C)c1"
  ASSIGNED_CATEGORY: "inactive"
- COMPOUND: "COc1cc(OC)c2cc(C(=O)c3ccc(C#N)cc3)c(=O)oc2c1"
  ASSIGNED_CATEGORY: "inactive"
- COMPOUND: "CC(C)N(CCCC#N)C(C)C"
  ASSIGNED_CATEGORY: "inactive"
- COMPOUND: "Clc1ncnc2nc[nH]c12"
  ASSIGNED_CATEGORY: "inactive"
- COMPOUND: "Clc1ccc(C(SCc2ccccc2)SCc2ccccc2)cc1"
  ASSIGNED_CATEGORY: "inactive"
- COMPOUND: "C#CCSc1nnnn1-c1ccccc1"
  ASSIGNED_CATEGORY: "inactive"
- COMPOUND: "NC(=O)OCCO"
  ASSIGNED_CATEGORY: "inactive"
- COMPOUND: "CCNc1ccc2ccccc2c1N=Nc1ccc(N=Nc2ccccc2)cc1"
  ASSIGNED_CATEGORY: "inactive"
- COMPOUND: "NCC(O)C(O)C(O)C(O)CO (stereo not given)"
  ASSIGNED_CATEGORY: "inactive"
- COMPOUND: "CC(C)N(C(=O)c1ccccc1)C(C)C"
  ASSIGNED_CATEGORY: "inactive"
- COMPOUND: "O=CNCCc1ccccc1"
  ASSIGNED_CATEGORY: "inactive"
- COMPOUND: "O=S(=O)(c1ccc(NC(=S)NCc2cccnc2)cc1)N1CCCCC1"
  ASSIGNED_CATEGORY: "inactive"
- COMPOUND: "CSc1cnc2ccccc2n1"
  ASSIGNED_CATEGORY: "inactive"
- COMPOUND: "O=c1n(CC2CO2)c(=O)n(CC2CO2)n1CC1CO1 (stereo not given)"
  ASSIGNED_CATEGORY: "inactive"
- COMPOUND: "O=C1NC(=O)C(c2ccccc2)O1 (stereo not given)"
  ASSIGNED_CATEGORY: "inactive"
- COMPOUND: "O=C1NCC2CCCC1C2 (stereo not given)"
  ASSIGNED_CATEGORY: "inactive"
- COMPOUND: "CCN1CCCC(N2c3ccccc3Sc3ccccc32)C1 (stereo not given)"
  ASSIGNED_CATEGORY: "inactive"
- COMPOUND: "O=C(Nc1c(Cl)cc(Cl)cc1Cl)ON=C1CCCCC1"
  ASSIGNED_CATEGORY: "inactive"
- COMPOUND: "Cc1cc2c3ccc(C)[n+](C)c3ccc2n1C"
  ASSIGNED_CATEGORY: "inactive"
- COMPOUND: "C/C(O)=C(/C=N/C(=S)Nc1ccccc1)C(=O)Nc1ccccc1C"
  ASSIGNED_CATEGORY: "inactive"
- COMPOUND: "CN=S(=O)(OCCCCCOS(=O)(=NC)c1ccc(C)cc1)c1ccc(C)cc1 (stereo not given)"
  ASSIGNED_CATEGORY: "inactive"
- COMPOUND: "CC(CO)(CO)C(=O)O"
  ASSIGNED_CATEGORY: "inactive"
- COMPOUND: "Nc1c(O)c(S(=O)(=O)O)c(O)c2c1C(=O)c1ccccc1C2=O"
  ASSIGNED_CATEGORY: "inactive"
- COMPOUND: "Cc1cc(C(=O)NN)c(C#N)c(=O)[nH]1"
  ASSIGNED_CATEGORY: "inactive"
- COMPOUND: "C=CCNC(=S)N/C=C(/C(=O)c1ccccc1)c1ccccc1"
  ASSIGNED_CATEGORY: "inactive"
- COMPOUND: "O=C(O)CCCCCNC(=O)OCc1ccccc1"
  ASSIGNED_CATEGORY: "inactive"
- COMPOUND: "Cc1ccc([N+](=O)[O-])c(C)n1"
  ASSIGNED_CATEGORY: "inactive"
- COMPOUND: "CC1=CC(=Nc2ccc(N(C)C)cc2)C=C(C)C1=O"
  ASSIGNED_CATEGORY: "inactive"
- COMPOUND: "CCC12OC(COc3ccccc3)CN1CCN2c1ccccc1 (stereo not given)"
  ASSIGNED_CATEGORY: "inactive"
- COMPOUND: "N#Cc1ccc2nc[nH]c2c1"
  ASSIGNED_CATEGORY: "inactive"
- COMPOUND: "Cc1cc(=O)n(Nc2ccccc2)c(O)c1C#N"
  ASSIGNED_CATEGORY: "inactive"
- COMPOUND: "Cc1ccc(N2C(=O)c3cccc4c(N)c(S(=O)(=O)O)cc(c34)C2=O)cc1"
  ASSIGNED_CATEGORY: "inactive"
- COMPOUND: "C=CCC(OC(C)=O)c1ccc(OC)c(OC)c1 (stereo not given)"
  ASSIGNED_CATEGORY: "inactive"
- COMPOUND: "Clc1ccc(/C=C/c2ccccn2)cc1"
  ASSIGNED_CATEGORY: "inactive"
- COMPOUND: "Cn1c(=O)[nH]c2ccccc2c1=O"
  ASSIGNED_CATEGORY: "inactive"
- COMPOUND: "C/C(=N\\N=C(/C)c1cccc([N+](=O)[O-])c1)c1cccc([N+](=O)[O-])c1"
  ASSIGNED_CATEGORY: "inactive"
- COMPOUND: "CC(=O)Oc1c(Cl)cccc1-c1ccccc1"
  ASSIGNED_CATEGORY: "inactive"
- COMPOUND: "COc1ccc(Nc2cc(Cl)ccc2C(=O)O)cn1"
  ASSIGNED_CATEGORY: "inactive"
